- Tested on: Escherichia coli
- Test summary: Antibacterial activity against Escherichia coli after 24 to 72 hrs by disk diffusion method
- Format: functional
Experimental readout: MIC
Please provide the amount together with its unit, number first.

Some solved entries appear below for comparison.
{"columns": ["Chemical smiles", "MIC"],
 "data": [
  ["C=C1OC(=O)[C@]2(C1=O)[C@H](C)C=CC(=O)[C@H]2O", "14 µg/mL"],
  ["CC1(C)S[C@@H]2[C@H](NC(=O)Cc3ccccc3)C(=O)N2[C@H]1C(=O)O", "560 µg/mL"],
  ["NC[C@H]1O[C@H](O[C@H]2[C@H](O)[C@@H](O[C@H]3O[C@H](CO)[C@@H](O)[C@H](N)[C@H]3O)[C@H](N)C[C@@H]2N)[C@H](O)[C@@H](O)[C@@H]1O", "28 µg/mL"]
]}

Now consider the entry below.
Lookup: Name the reported MIC value associated with the compound CN[C@@H]1[C@H](O[C@H]2[C@H](O[C@H]3[C@H](O)[C@@H](O)[C@H](N=C(N)N)[C@@H](O)[C@@H]3N=C(N)N)O[C@@H](C)[C@]2(O)C=O)O[C@@H](CO)[C@H](O)[C@H]1O
Found: 28 µg/mL

###

- Test summary: Cytotoxicity against human MRC5 cells after 5 days by MTT assay
- Format: cell-based
- Condition notes: read-out: LD50
Experimental readout: CC50 at 120 h

Lookup: Name the reported CC50 at 120 h value associated with the compound C=C1OC(=O)[C@]2(C1=O)[C@H](C)C=CC(=O)[C@H]2O
Found: > 100 µg/mL

The reported measurements were obtained from ChEMBL document CHEMBL1144104.
